Test system: P12-Ichikawa
Assay: cell viability relative to DMSO control; higher = less cytotoxic
Conditions: HPLM + 10% dialyzed FBS; 48 h; 46.1 µM
Field: cell viability. Provide a value for each of the compounds that follow.
One number for each entry, in %.

Answered examples (5):
compound=ClC1=CC=C2N/C3=N/C(=O)CN3CC2=C1Cl reported_value=82.2
compound="C=C1C(=O)OC(CCCCCCCC)C1C(=O)O (stereo not given)" reported_value=115
compound=CN(C)c1ccc2nc3ccc(N(C)C)cc3[s+]c2c1 reported_value=3.04
compound=CN(C)C1=CC(=CC=C1)C\2=C\3C(=O)N(NC3=C/C(=O)N2C)C4=CC=CC=C4Cl reported_value=7.14
compound=NC(=O)Nc1sc(-c2ccc(F)cc2)cc1C(N)=O reported_value=24.3

Quick request: cell viability for each listed item, please.
1. Cc1ccc([N+](=O)[O-])cc1[S+](=O)([O-])N(C)/N=C/c1cnc2ccc(Br)cn12
2. O=C(Nc1nnc(-c2ccco2)o1)c1cc(-c2ccccc2)nc2ccccc12
3. CC\12CCC(=O)\C=C1CCC3C2CCC4(C)C3CCC4(O)C#C (stereo not given)
4. CCCC(C)(COC(N)=O)COC(=O)NC(C)C (stereo not given)
5. C[C@@H]1CCN(C(=O)CC#N)C[C@@H]1N(C)c1ncnc2[nH]ccc12

a:
4.27
3.16
92.3
119
78.6
